Data provenance is ChEMBL document CHEMBL5506066.

# collection of Kd values tested on von Hippel-Lindau disease tumor suppressor (Homo sapiens, UniProt P40337)
# Sequence (P40337 whole entry): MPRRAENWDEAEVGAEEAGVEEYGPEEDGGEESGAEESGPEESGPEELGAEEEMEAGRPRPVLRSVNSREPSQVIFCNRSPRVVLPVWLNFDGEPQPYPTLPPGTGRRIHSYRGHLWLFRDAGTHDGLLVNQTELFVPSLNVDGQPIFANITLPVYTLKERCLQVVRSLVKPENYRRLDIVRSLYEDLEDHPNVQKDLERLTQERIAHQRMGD
Answer with a number only, understood to be in µM.

For orientation, consider the following solved cases.
{"Structure": "CC(=O)N[C@H](C(=O)N1C[C@H](O)C[C@H]1C(=O)N[C@H](Cc1ccc(-c2ccccc2)cc1)C(N)=O)C1(C)CC1", "Assay system": "von Hippel-Lindau disease tumor suppressor (Homo sapiens, UniProt P40337)", "Measure name": "Kd", "Data value": 15.4}
{"Structure": "CC(=O)N[C@H](C(=O)N1C[C@H](O)C[C@H]1C(=O)N[C@H](Cc1ccc(-c2ccc(F)c(Cl)c2)cc1)C(N)=O)C(C)(C)C", "Assay system": "von Hippel-Lindau disease tumor suppressor (Homo sapiens, UniProt P40337)", "Measure name": "Kd", "Data value": 11}
{"Structure": "CC(C)(C)[C@@H](C(=O)N1C[C@H](O)C[C@H]1C(=O)N[C@H](Cc1ccc(-c2ccccc2)cc1)C(N)=O)n1cc(C(N)=O)nn1", "Assay system": "von Hippel-Lindau disease tumor suppressor (Homo sapiens, UniProt P40337)", "Measure name": "Kd", "Data value": 1.9}

Next:
Endpoint output: Kd of `CSCC[C@H](NC(C)=O)C(=O)N1C[C@H](O)C[C@H]1C(=O)N[C@H](Cc1ccc(-c2ccccc2)cc1)C(N)=O` . Value? 26.6

----------
Readings of Kd for the listed molecules
Assay system: von Hippel-Lindau disease tumor suppressor (Homo sapiens, UniProt P40337)
I only need the number, in µM, no unit after it.

{"Structure": "Cc1cnn([C@H](C(=O)N2C[C@H](O)C[C@H]2C(=O)N[C@H](Cc2ccc(-c3ccccc3)cc2)C(N)=O)C(C)C)c1", "Reading unit": "µM", "Kd": 25.4}

For the record `CC(=O)N[C@H](C(=O)N1C[C@H](O)C[C@H]1C(=O)N[C@H](Cc1ccc(-c2ccccc2)cc1)C(N)=O)C(C)(C)c1ccccc1` , what value of Kd is listed for von Hippel-Lindau disease tumor suppressor (Homo sapiens, UniProt P40337)? 4.6

----------
Consider the following compounds and their measured Kd readings.
Assay system: von Hippel-Lindau disease tumor suppressor (Homo sapiens, UniProt P40337)
Experiment summary: biochemical
Description: Binding affinity to VHL (unknown origin)-NanoLuc fusion protein expressed in HEK293 cells assessed as apparent dissociation constant incubated for 30 mins in presence of digitonin by NanoBRET assay
Express the result in µM but write the number alone.

{"Structure": "CC(C)(C)[C@@H](C(=O)N1C[C@H](O)C[C@H]1C(=O)N[C@H](Cc1ccc(-c2ccccc2)cc1)C(N)=O)n1cc(C(N)=O)nn1", "Reading unit": "µM", "Kd": 0.21}

Fill in: Kd of `CC(=O)N[C@@H](CCCN)C(=O)N1C[C@H](O)C[C@H]1C(=O)N[C@H](Cc1ccc(-c2ccccc2)cc1)C(N)=O` is ___ 17.3

Requested read-out: Kd. Entry: `CCC(C)(C)[C@@H](C(=O)N1C[C@H](O)C[C@H]1C(=O)N[C@H](Cc1ccc(-c2ccccc2)cc1)C(N)=O)n1cc(C2CC2)nn1` 0.069

Give the measured Kd of `CC(=O)N[C@H](C(=O)N1C[C@H](O)C[C@H]1C(=O)N[C@H](Cc1ccc(I)cc1)C(N)=O)C(C)(C)C` . 2.6

----------
Experiment summary: Plasma protein binding in human at 5 uM incubated for 4 hrs by HPLC analysis
Assay type: ADME, cell-free
Measurement parameters: read-out: PPB (converted)
Measure name: fraction unbound at 4 h, 5 µM
No unit in the answer, please; the number alone is enough.

{"Structure": "Cc1ncsc1-c1ccc2c(c1)CCCC[C@@H]2NC(=O)[C@@H]1C[C@@H](O)CN1C(=O)[C@@H](n1cc(C2CC2)nn1)C(C)(C)C", "Data value": 0.003}

We now examine a further molecule.
GET /values?readout=fraction unbound at 4 h, 5 µM&item= `CC(=O)N[C@H](C(=O)N1C[C@H](O)C[C@H]1C(=O)N[C@@H](C)c1ccc(-c2scnc2C)cc1)C(C)(C)C` 0.516

----------
Parameter Kd, tested on von Hippel-Lindau disease tumor suppressor (Homo sapiens, UniProt P40337), listed per item.
Kindly provide the numeric value in µM only, without the unit symbol.

Reference set (2 entries):
{"Structure": "CC(=O)N[C@H](C(=O)N1C[C@H](O)C[C@H]1C(=O)N[C@H](Cc1ccc(-c2cccnc2)cc1)C(N)=O)C(C)(C)C", "Kd [µM]": 45.2}
{"Structure": "COc1ccccc1-c1ccc(C[C@@H](NC(=O)[C@@H]2C[C@@H](O)CN2C(=O)[C@@H](NC(C)=O)C(C)(C)C)C(N)=O)cc1", "Kd [µM]": 12.2}

Hello, I am looking for reported Kd with von Hippel-Lindau disease tumor suppressor (Homo sapiens, UniProt P40337) for `CC(=O)N[C@H](C(=O)N1C[C@H](O)C[C@H]1C(=O)N[C@H](C(N)=O)c1ccc(-c2scnc2C)cc1)C(C)(C)C` . Could you help? 14

----------
# maps each entry to its Kd
Assay system: von Hippel-Lindau disease tumor suppressor (Homo sapiens)
Experiment summary: biochemical
Response body: numeric value in µM, unit text excluded.

Which value of Kd has been reported for `CC(C)[C@@H](C(=O)N1C[C@H](O)C[C@H]1C(=O)N[C@H](Cc1ccc(-c2ccccc2)cc1)C(N)=O)c1cnn(C)c1` in the records? 45.7

# input compound: `CC(=O)N[C@H](C(=O)N1C[C@H](O)C[C@H]1C(=O)N[C@H](Cc1ccc(-c2ccccc2)cc1)C(N)=O)C(C)(C)c1ccccc1` ; wanted: its Kd 3.1

Recorded Kd for `CC(=O)N[C@H](C(=O)N1C[C@H](O)C[C@H]1C(=O)N[C@H](Cc1ccc(-c2ccc(F)c(Cl)c2)cc1)C(N)=O)C(C)(C)C` , please? 3.5

Bench note: what Kd did `CC(=O)N1CC[C@H]1C(=O)N1C[C@H](O)C[C@H]1C(=O)N[C@H](Cc1ccc(-c2ccccc2)cc1)C(N)=O` show? 48

----------
A set of molecules tested on von Hippel-Lindau disease tumor suppressor (Homo sapiens, UniProt P40337), with measured Kd:

Solved entries:
{"Structure": "CC(=O)N[C@@]1(C(=O)N2C[C@H](O)C[C@H]2C(=O)N[C@H](Cc2ccc(-c3ccccc3)cc2)C(N)=O)CC1(C)C", "Kd": "> 57.5 µM"}
{"Structure": "CC(C)(C)n1nnc(CC(=O)N2C[C@H](O)C[C@H]2C(=O)N[C@H](Cc2ccc(-c3ccccc3)cc2)C(N)=O)n1", "Kd": "> 57.5 µM"}
{"Structure": "Cc1ncsc1-c1ccc2c(c1)CCCC[C@@H]2NC(=O)[C@@H]1C[C@@H](O)CN1C(=O)[C@@H](n1cc(C2CC2)nn1)C(C)(C)C", "Kd": "< 0.0025 µM"}

Now, please, on to the next molecule.
What reported Kd corresponds to `COc1ccc(-c2ccc(C[C@@H](NC(=O)[C@@H]3C[C@@H](O)CN3C(=O)[C@@H](NC(C)=O)C(C)(C)C)C(N)=O)cc2)cc1F` on von Hippel-Lindau disease tumor suppressor (Homo sapiens, UniProt P40337)? > 57.5 µM

----------
Entries and their measured pKd follow.
Assay system: von Hippel-Lindau disease tumor suppressor (Homo sapiens)
Experiment summary: biochemical
pKd: −log10 of the molar value.

Example molecules with recorded pKd:
{"Structure": "NC(=O)[C@@H](Cc1ccc(-c2ccccc2)cc1)NC(=O)[C@@H]1C[C@@H](O)CN1C(=O)Cc1cncs1", "pKd": "< 4.29"}
{"Structure": "NC(=O)[C@@H](Cc1ccc(-c2ccccc2)cc1)NC(=O)[C@@H]1C[C@@H](O)CN1C(=O)Cc1ccoc1", "pKd": "< 4.29"}
{"Structure": "NC(=O)[C@@H](Cc1ccc(-c2ccccc2)cc1)NC(=O)[C@@H]1C[C@@H](O)CN1C(=O)Cc1cnco1", "pKd": "< 4.29"}

Looking for the measured pKd of `Cc1cc(C2(C(=O)N3C[C@H](O)C[C@H]3C(=O)N[C@H](Cc3ccc(-c4ccccc4)cc3)C(N)=O)CC2)on1` , can you help? < 4.29

Which measured pKd value corresponds to `CC(=O)N[C@H](C(=O)N1C[C@H](O)C[C@H]1C(=O)N[C@H](Cc1ccc(C)cc1)C(N)=O)C(C)(C)C` ? < 4.29

----------
Assay system: von Hippel-Lindau disease tumor suppressor (Homo sapiens)
pKd: −log10 of the molar value.
Measure name: pKd

Study these solved cases before continuing.
{"Structure": "CC(=O)N[C@H](C(=O)N1C[C@H](O)C[C@H]1C(=O)N[C@H](Cc1ccc(-c2ccccc2)cc1)C(N)=O)C(c1ccccc1)c1ccccc1", "pKd": "< 4.24"}
{"Structure": "COc1ccc(-c2ccc(C[C@@H](NC(=O)[C@@H]3C[C@@H](O)CN3C(=O)[C@@H](NC(C)=O)C(C)(C)C)C(N)=O)cc2)cc1", "pKd": "< 4.24"}
{"Structure": "Cc1ccc(CC(=O)N2C[C@H](O)C[C@H]2C(=O)N[C@H](Cc2ccc(-c3ccccc3)cc2)C(N)=O)cn1", "pKd": "< 4.24"}
{"Structure": "CC(=O)N[C@@H](Cc1ccccc1)C(=O)N1C[C@H](O)C[C@H]1C(=O)N[C@H](Cc1ccc(-c2ccccc2)cc1)C(N)=O", "pKd": "< 4.24"}
{"Structure": "CC(=O)NC1(C(=O)N2C[C@H](O)C[C@H]2C(=O)N[C@H](Cc2ccc(-c3ccccc3)cc2)C(N)=O)CC1", "pKd": "< 4.24"}

Notebook entry, von Hippel-Lindau disease tumor suppressor (Homo sapiens) assay: pKd of `Cc1cn(CC(=O)N2C[C@H](O)C[C@H]2C(=O)N[C@H](Cc2ccc(-c3ccccc3)cc2)C(N)=O)nn1` = ? < 4.24

Recorded pKd for `CC(=O)N[C@H](C(=O)N1C[C@H](O)C[C@H]1C(=O)N[C@H](Cc1ccc(-c2scnc2C)cc1)C(N)=O)C(C)(C)C` with von Hippel-Lindau disease tumor suppressor (Homo sapiens), please? < 4.29

# returns recorded pKd (system: von Hippel-Lindau disease tumor suppressor (Homo sapiens)) for `Cc1ncc(CC(=O)N2C[C@H](O)C[C@H]2C(=O)N[C@H](Cc2ccc(-c3ccccc3)cc2)C(N)=O)s1` < 4.24
